Property: 500 nM hANGPTL8 peptide Bound (RU); scope: individual binders
- Test system: T1, human ANGPTL8 peptide (hANGPTL8 peptide, SEQ ID NO: 337) (human)
- T1 construct: also called N-terminal region ANGPTL8 peptide
- T1 peptide: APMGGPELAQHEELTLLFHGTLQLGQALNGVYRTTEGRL
- Protocol summary: SPR, captured mAb, 500 nM peptide, 25C
Just the number please, in RU, no unit attached.

{"Binder": "H4H15319P (antibody, human IgG4, V domains shown, H4H prefix: human IgG4 Fc) VH: EVQLVESGGGVVRPGGSLRLSCAASGFTVDDYDMSWVRQTPGKGLEWISGINWNGGNTGYADSVKGRFIISRDSAKNSLFLQMNSLRAEDTALYHCWGAIGAFDIWGQGTMVTVSS VL: DIVMTQSPLSSPVTLGQPASISCRSSQSLVHSDGGTYLSWLQQRPGQPPRLLIYKIFNRFSGVPDRFSGSGAGTDFTLRISRVEAEDVGVYYCMQTTQFPLTFGGGTKVEIK", "Quantity unit": "RU", "Readout number": 0}

Memo: H4H15334P (antibody, human IgG4, V domains shown, H4H prefix: human IgG4 Fc) VH: QVQLQESGPGLVKPSQTLSLTCTVSGGSINSGGYYWNWIRQHPGKGLEWIGYIYYSGSTYFNPSLKSRVTISIDTSKNQFSLKLSSVTAADTAVYYCAREGIYAFDYWGQGTLVTVSS VL: DIQMTQSPSSLSASVGDRVTITCRASQGIRNDLGWYQQKPGKAPKRLIYSASSLQSGVPSRFGGSGSGTEFTLTISSLQPEDFATYYCLQHNSYPWTFGQGTKVEIK , reported 500 nM hANGPTL8 peptide Bound (RU): 0

Memo: H4H15314P2 (antibody, human IgG4, V domains shown, H4H prefix: human IgG4 Fc) VH: QVQLVQSGAEVKKPGASVKVSCKASGYTFTSYDINWVRQATGQGLEWMGWMNPNGDNTGYAQKFQGRVTMTGDTSISTAYMELSSLRSEDTAVYYCAREGIWGFDPWGQGTLVTVSS VL: DIQMTQSPSSLSASVGDRVTITCRASQDIRNDLGWYQQKPGKAPKRLIYAASSLQSGVPSRFSGSGSGTEFTLTISSLQPEDFATFYCLQHNTFPRTFGQGTKVEIK , reported 500 nM hANGPTL8 peptide Bound (RU): 0
